These data points were gathered from patent US11802108B2.

- experimentalSystem: CypA (Homo sapiens (Human), UniProt P62937)
- Sequence (P62937 whole entry): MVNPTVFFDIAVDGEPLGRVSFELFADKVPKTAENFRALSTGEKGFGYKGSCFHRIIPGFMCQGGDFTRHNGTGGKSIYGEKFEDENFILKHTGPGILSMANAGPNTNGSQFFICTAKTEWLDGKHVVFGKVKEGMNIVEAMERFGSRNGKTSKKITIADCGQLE
- test: Isothermal titration calorimetry (ITC) binding to CypA
- assayContext: 25° C.
pKd: −log10 of the molar value.
experimentalReadout: pKd

>>> obsvalue("CCN(Cc1ccc(N)cc1)C(=O)NCC(=O)N1CCCC1c1ccccc1Br.Cl (stereo not drawn) [Compound 10, hydrochloride]")
"~4.60"
>>> obsvalue("CCOC(=O)Cn1cc(CN(Cc2ccc(N)cc2)C(=O)NCC(=O)N2CCCC2c2ccccc2Br)nn1.Cl (stereo not drawn) [Compound 5, hydrochloride]")
"~5.52"
>>> obsvalue("Cl.Nc1ccc(CN(CC2CC2)C(=O)NCC(=O)N2CCCC2c2ccccc2Br)cc1 (stereo not drawn)")
"~5.00"
